Assay: Hepatocyte Stability Assay, human hepatocytes
Format: in vitro ADME
Conditions: both sexes, cryopreserved hepatocytes, pH 7.3; human hepatocytes 0.7 million cells per mL, 1 uM compound
Entries annotated with measured hepatocyte CLint at 1 uM

• CN(C)C(=O)COc1cnc(N[C@H]2CC[C@@H](Oc3nc(N4CCOCC4)cc4ncc(NS(C)(=O)=O)cc34)CC2)nc1 = < 8.2 µL/min/1e6 cells

Reported hepatocyte CLint at 1 uM, molecule O=S(=O)(CC(F)F)Nc1cnc2cc(N3CCOCC3)nc(O[C@H]3CC[C@@H](Nc4ncccn4)CC3)c2c1 : ____ < 8.2 µL/min/1e6 cells

Another molecule: O=C(Cn1c(=O)n(C2CCOCC2)c2nc(N[C@H]3CC[C@@H](Oc4nc(N5CCOCC5)cc5ncccc45)CC3)ncc21)N1CCOCC1 > 8.2 µL/min/1e6 cells

Another molecule: CS(=O)(=O)c1cnc2cc(N3CCOCC3)nc(O[C@H]3CC[C@@H](Nc4ncc(OCC(=O)N5CCOCC5)cn4)CC3)c2c1 [Compound 204a] < 8.2 µL/min/1e6 cells

Another molecule: CS(=O)(=O)c1cnc2cc(N3CCOCC3)nc(O[C@H]3CC[C@@H](NC(=O)c4ncco4)CC3)c2c1 [Compound 204c] < 8.2 µL/min/1e6 cells

Another molecule: O=C(COc1cnc(N[C@H]2CC[C@@H](Oc3nc(N4CCOCC4)cc4ncccc34)CC2)nc1)N1CCNCC1 > 8.2 µL/min/1e6 cells
